Molecular target: mouse constitutive androstane receptor (mCAR, NR1I3) (Mus musculus, UniProt O35627)
Sequence (O35627 whole entry): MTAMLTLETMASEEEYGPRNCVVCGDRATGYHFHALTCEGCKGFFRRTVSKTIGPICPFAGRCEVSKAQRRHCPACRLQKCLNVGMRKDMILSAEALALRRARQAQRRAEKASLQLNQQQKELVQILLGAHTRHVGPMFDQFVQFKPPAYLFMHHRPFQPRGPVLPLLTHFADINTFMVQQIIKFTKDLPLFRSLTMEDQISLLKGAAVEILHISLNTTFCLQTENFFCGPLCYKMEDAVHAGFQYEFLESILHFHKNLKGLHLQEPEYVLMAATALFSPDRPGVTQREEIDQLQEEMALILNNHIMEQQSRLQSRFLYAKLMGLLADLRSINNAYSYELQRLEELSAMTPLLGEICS
Test: Inhibition of mouse constitutive androstane receptor (mCAR) activity at 10 uM was determined as percent remaining activity
Conditions: read-out: Remaining activity

| compound | activity at 10 µM (%) |
| --- | --- |
| CC12CCC[C@H]1[C@@H]1CC[C@H]3CC(=O)CCC3(C)[C@H]1CC2 (some centres not stated) | 12 |
| CC12CCC3C(CC[C@H]4CC=CCC34C)C1CCC2=O (some centres not stated) | 42 |
| CC12CC[C@@H]3C4CC[C@@H](O)C[C@@H]4CC[C@H]3[C@@H]1CCC2=O (some centres not stated) | 91 |
| CC12CCC(=O)C=C1CCC1C2CCC2(C)C1CC[C@@H]2C(=O)O (some centres not stated) | 81 |
| C[C@]12C[C@H](O)[C@H]3[C@@H](CCC4=CC(=O)CC[C@@]43C)[C@@H]1CC[C@@H]2C(=O)CO | 80 |
| CC12C=CCC1C1CC[C@H]3C[C@@H](O)CCC3(C)C1CC2 (some centres not stated) | 28 |
| CC12C=CCC1C1CCC3=CC(=O)CCC3(C)C1CC2 (configuration not stated) | 7 |

From: ChEMBL document CHEMBL1145136
